Numbers sourced from patent US20250042994A1.

Provide the reported koff of each item.
- testSystem: T1, Human CD19-his protein (human, UniProt P15391 20-291)
- T1 construct: bought protein; also called recombinant human CD19-His; CD19 full-length protein; not shown: His tag
- T1 sequence (looked up): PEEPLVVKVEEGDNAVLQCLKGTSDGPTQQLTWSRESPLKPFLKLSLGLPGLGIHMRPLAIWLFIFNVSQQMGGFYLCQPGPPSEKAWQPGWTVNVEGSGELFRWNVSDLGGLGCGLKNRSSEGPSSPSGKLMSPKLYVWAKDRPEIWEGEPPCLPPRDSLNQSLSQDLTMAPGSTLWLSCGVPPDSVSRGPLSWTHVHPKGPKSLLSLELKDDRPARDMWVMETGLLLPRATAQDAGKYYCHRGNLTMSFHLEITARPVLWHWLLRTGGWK
- protocolDescription: SPR Biacore, Ab captured on Protein A, CD19-His analyte

Req: Give koff for the following binder: F3.3.10 (antibody, human IgG1, V domains shown, human-murine chimeric antibody, human IgG1 constant) VH: DVQLQESGPGLAKLSQSLSLTCSVTGYSITSGYYWNWIRQFPGNKLEWMGHISYDGNNNYNPSLKNRISITRDTSKNQFFLKLNSVTTEDTATYYCARENYSNYYFDYWGQGTTLTVSS VL: DIVLTQSPASLAVSLGQRATISCRASQSVSKSSYTYIHWYQQKPGQPPKLLIKYASILQSGVPARFSGSGSGTDFTLNFHPVEEEDTATYYCQHSWEIPYTFGGGTKLEIK
Resp: 0.000621 s⁻¹

Req: Give the reported value of koff for this record: F4.58.6 (antibody, human IgG1, V domains shown, human-murine chimeric antibody, human IgG1 constant) VH: QVQLQQPGAELVKPGASVKLSCKASGYTFTSYWMHWVKQRPGQGLEWIGEIDPSDSYSNYNQKFKGKATLTVDKSSSTAYMQLSSLTSEDSAVYYCARSNYGSSYGYFDVWGAGTTVTVSS VL: QIVLTQSPAIMSASPGEKVTMTCSVSSSLSYMHWYQQKPGTSPKRWIYDTSKLASGVPARFSGSGSGTSYSLTISSMEAEDAATYYCHQRSSYPTFGGGTKLEIK
Resp: 0.002 s⁻¹

Req: Output koff of F4.22.6 (antibody, human IgG1, V domains shown, human-murine chimeric antibody, human IgG1 constant) VH: QVQLQQSGPELVKPGASVKISCKASGYAFSSFWMNWVKQRPGQGLEWIGRIYPGDGDTNYNGKFKGKATLTADKSSTTAYMHLSSLTSVDSAVYFCTRSVITAVVDWYFDVWGAGTTVTVSS VL: QIVLSQSPAILSASPGEKVTLTCRASSSVNFMHWYQQKPGSSPKPWIYATSNLASGAPARFSGSGSGTSYSLTISRVEAEDAAAYYCQQWSSYPIFTFGSGTKLEIK
Resp: 0.00147 s⁻¹

Req: Name the recorded koff of the item F3.126.15 (antibody, human IgG1, V domains shown, human-murine chimeric antibody, human IgG1 constant) VH: QVQLQQPGAELVMPGASVKLSCKASGYTFTSYWMHWVKQRPGQGLEWIGEIDPSDSYTTYNQNFKGKATLTVDISTSTAYIQLSNLTSEDSAVYYCARLTGNYIHYWGQGTTLTVSS VL: DIVMTQSHKFMSTSVGDRVSITCKASQDVSPAVAWYQQRPGQCPKLLIFSSSYRSTGVPDRFTGSGSGTDFTFTISSVQAEDLAVYYCQQHYSLPLTFGAGTKLELK in your answer.
Resp: 0.000799 s⁻¹

Req: Provide one value: measured koff of F1-mab003 (antibody, human IgG1, V domains shown, human-murine chimeric antibody, human IgG1 constant) VH: EVQLQQSGPELVKPGASVKMSCKASGYTFTDYVMHWVRQTPGQGLEWIGYFNPYNDGTNYNEKFKVKATLTSDKSSTTAYMELSSLTSEDSAVYYCARGVYYYGRDFDYWGQGTTLTVSS VL: DVVLTQTPLSLPVSLGDQASISCRSSQSLENSNGNSYLNWYLQKPGQSPQLLIYRVSNRFSGVLDRFSGSGSGTDFTLKISRVEAEDLGVYFCLQITHVPWTFGGGTKLEIK
Resp: 0.000111 s⁻¹
